This collection of values is drawn from PubChem BioAssay AID651684.

- Tested on: Pro5-aDG cells, alpha-DG glycosylation, IIH6 AlphaLISA
- METHOD_NOTES: alpha-DG glycosylation activators, EC50, dose response, Pro5-aDG cells, AlphaLISA (AID 651684)
Active and inactive are the calls of the source.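 How the source made its calls: active means any single replicate giving an EC50 below 30 µM; inactive means the rest.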
PROPERTY_LABEL: EC50

For the 7 molecules below, give their EC50 values.
1. CNc1nc(-c2c[nH]c3ccccc23)cs1
2. CC(=O)c1ccc(N2CCN(C(=O)Nc3ccc(C(C)C)cc3)CC2)cc1
3. CCOc1ccc(N2CC(C(=O)N3CCN(c4ccccn4)CC3)CC2=O)cc1 (stereo not drawn)
4. C=CCn1c(=N)n(CC(=O)c2ccc(Cl)cc2)c2ccccc21
5. CCOC(=O)c1cc(-c2ccc(F)cc2)n(CCC(=O)NC2CCN(Cc3ccccc3)CC2)c1C
6. Cc1cc(NC2=CC(=O)C(=O)c3ccccc32)no1
7. Cc1cc(C)n(-c2nc(NCCCN(C)C)c3c4c(sc3n2)CCCC4)n1

4.99 µM
12.8 µM
11.8 µM
41.6 µM (inactive)
> 80 µM (inactive)
6.66 µM
16.1 µM

For the 7 molecules below, give their EC50 values.
1. c1cncc(-c2nnc(-c3cccnc3)nn2)c1
2. Cc1cc(NCc2ccccn2)n2ncc(-c3ccc(Cl)cc3)c2n1
3. COc1cc(/C=C/C(=O)Nc2nc3ccc(S(=O)(=O)NC(C)C)cc3s2)cc(OC)c1OC
4. CCCCCOc1ccc(/C(C)=N/NC2=NCCN2)cc1
5. CN(C)CCCNC(=O)/C=C/c1ccc(OCc2c(F)cccc2Cl)cc1
6. N#Cc1ccc(-c2nc3c4ccccc4ccn3c2CC2CCCCC2)cc1
7. CC1CCCN(CCCNC(=O)c2nn(C)c3c2CSc2ccccc2-3)C1 (stereo not drawn)

1. 8.73 µM
2. 3.48 µM
3. 9.21 µM
4. 5.81 µM
5. 9.37 µM
6. 7.97 µM
7. 8.18 µM

For the 5 molecules below, give their EC50 values.
1. Cc1ccnc(-n2c(C)nc3ccccc3c2=O)c1
2. CCCCCOc1ccc(NC(=O)C(=O)NCC2CCCN2CC)cc1 (stereo not drawn)
3. c1ccc2c(-c3cc(C4CCNCC4)[nH]n3)cccc2c1
4. CN1N=C(N)c2cn(C3OC(COP(=O)(O)O)C(O)C3O)c3ncnc1c23 (stereo not drawn)
5. COCCNc1nc(NCCOc2ccccc2)c2sc(-c3ccccc3)cc2n1

1. > 80 µM (inactive)
2. 8.54 µM
3. > 80 µM (inactive)
4. 35.1 µM (inactive)
5. 7.86 µM

* * *

- Test system: Pro5-aDG cells, alpha-DG glycosylation, IIH6 AlphaLISA
- METHOD_NOTES: alpha-DG glycosylation activators, EC50, dose response, Pro5-aDG cells, AlphaLISA (AID 651684);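 active = any single replicate giving an EC50 below 30 µM; inactive = the rest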
// allowed return values: active, inactive

What call does the record list for CCN(CC)CCn1c(=N)n(CC(=O)c2ccc(C)cc2)c2ccccc21 ?
active

* * *

- System: Pro5-aDG cells, alpha-DG glycosylation, IIH6 AlphaLISA
- METHOD_NOTES: alpha-DG glycosylation activators, EC50, dose response, Pro5-aDG cells, AlphaLISA (AID 651684)
Active and inactive are the calls of the source.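 Rule for the calls: active = any single replicate giving an EC50 below 30 µM; inactive = the rest.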
// allowed return values: label 1 (active), label 0 (inactive)

MOLECULE	DISCRETE_LABEL
Cc1ccc(NC(=O)c2ccc([N+](=O)[O-])s2)cc1S(=O)(=O)N1CCOCC1	label 1
NC(c1csc(Nc2cc(Oc3ccccc3)ncn2)n1)C1CCCCC1 (stereo not drawn)	label 1
CN1CCN(c2ccc(S(=O)(=O)N3CCCCC3)cc2NC(=O)/C=C/c2ccc(OC(F)F)cc2)CC1	label 0
CS(=O)(=O)c1ccc(Nc2nc(C(N)Cc3ccc(Cl)cc3)cs2)cc1 (stereo not drawn)	label 1
O=C(CNC(=O)c1ccccc1Cl)N/N=C/c1ccc([N+](=O)[O-])s1	label 1
COc1cccc(C(=O)Cn2c(=N)n(C)c3ccccc32)c1	label 0

What call does the record list for COc1ccc(CN2CCC(C(=O)Nc3ccc(Oc4cccnc4)cc3)CC2)c(C)c1C ?
label 1

Next molecule: N=c1c2c(ncn1CCCO)Oc1c(ccc3ccccc13)C2c1ccccc1 (stereo not drawn)
label 0

Next molecule: CCn1cc(CN2CCC(C(=O)Nc3cccc(-c4cccc(Cl)c4)c3)CC2)c(C)n1
label 1

Next molecule: COc1ccc(Cc2nc(-c3ccc(NC(=O)c4cccnc4)cc3)no2)cc1
label 1

Next molecule: CN1CCN(c2ncnc3c2ncn3[C@H]2CN(Cc3ccc(-c4ccccc4)cc3)C[C@@H](CO)O2)CC1
label 1

Next molecule: CCCn1c(=N)n(CC(=O)c2ccc(Cl)c(Cl)c2)c2ccccc21
label 0

Next molecule: CCC(C)Nc1nc(-c2c[nH]c3ccccc23)cs1 (stereo not drawn)
label 1

Next molecule: CN(C)CCCNS(=O)(=O)c1ccc(NC2CCCCCC2)c([N+](=O)[O-])c1
label 1
